Species: Cavia porcellus
Experiment: Positive inotropic activity was assessed in spontaneously beating guinea pig atria; NA=Not active
Assay type: functional, organism-based
endpoint: EC50

# molecule, endpoint, result
measured = [
    ("C=C[C@@]1(C)CC(=O)[C@]2(O)C3(C)C(C(OC(=O)CCCN4CCCCC4)C(O)[C@@]2(C)O1)C(C)(C)CC[C@@H]3O.Cl (stereo partly specified)", "EC50", "Not Active"),
    ("C=C[C@@]1(C)CC(=O)[C@]2(O)C3(C)C(C(O)C(OC(=O)CN(CC(=O)OC4C(O)C5C(C)(C)CC[C@H](O)C5(C)[C@@]5(O)C(=O)C[C@](C)(C=C)O[C@]45C)Cc4ccccc4)[C@@]2(C)O1)C(C)(C)CC[C@@H]3O (stereo partly specified)", "EC50", "Not Active"),
    ("C=C[C@@]1(C)CC(=O)[C@]2(O)C3(C)C(C(O)C(OC(=O)C(C)Nc4ccccc4)[C@@]2(C)O1)C(C)(C)CC[C@@H]3O (stereo partly specified)", "EC50", "Not Active"),
    ("C=C[C@@]1(C)CC(=O)[C@]2(O)C3(C)C(C(O)C(OC(=O)CCN4CCN(C)CC4)[C@@]2(C)O1)C(C)(C)CC[C@@H]3O.Cl (stereo partly specified)", "EC50", "Not Active"),
    ("C=C[C@@]1(C)CC(=O)[C@]2(O)C3(C)C(C(O)C(OC(=O)CN4C(C)CCCC4C)[C@@]2(C)O1)C(C)(C)CC[C@@H]3O.Cl (stereo partly specified)", "EC50", "Not Active"),
]

Consider the record given below.
Prompt: Report EC50 for C=C[C@@]1(C)CC(=O)[C@]2(O)C3(C)C(C(O)C(OC(=O)CCCN4CCN(C)CC4)[C@@]2(C)O1)C(C)(C)CC[C@@H]3O.Cl (stereo partly specified) please.
Response: Not Active

----------
Tested on: Felis catus
Assay: Effective dose for lowering blood pressure in anesthetized cat when administered intravenously
Assay type: functional
Conditions: iv
Attribute: ED20
Please respond with the number in mg/kg and leave the unit unwritten.

Example entries and their recorded answers appear below.
# compound, ED20 [mg/kg]
measured = [
    ("C=C[C@@]1(C)CC(=O)[C@]2(O)C3(C)C(C(O)C(OC(=O)CCCCN4CCCCC4)[C@@]2(C)O1)C(C)(C)CC[C@@H]3O.Cl (stereo not given in full)", 1),
    ("C=C[C@@]1(C)CC(=O)[C@]2(O)C3(C)C(C(OC(=O)CN4CCC(O)(c5ccccc5)CC4)C(O)[C@@]2(C)O1)C(C)(C)CC[C@@H]3O (stereo not given in full)", 5),
    ("C=C[C@@]1(C)CC(=O)[C@]2(O)C3(C)C(C(O)C(OC(=O)CN(C)C4CCCCC4)[C@@]2(C)O1)C(C)(C)CC[C@@H]3O (stereo not given in full)", 10),
    ("C=C[C@@]1(C)CC(=O)[C@]2(O)C3(C)C(C(OC(=O)C(C)Nc4ccccc4)C(O)[C@@]2(C)O1)C(C)(C)CC[C@@H]3O.Cl (stereo not given in full)", 6.2),
    ("C=C[C@@]1(C)CC(=O)[C@]2(O)C3(C)C(C(OC(=O)CCN4CCN(C)CC4)C(O)[C@@]2(C)O1)C(C)(C)CC[C@@H]3O.Cl (stereo not given in full)", 1.4),
    ("C=C[C@@]1(C)CC(=O)[C@]2(O)C3(C)C(C(OC(=O)CN4CCCC4)C(O)[C@@]2(C)O1)C(C)(C)CC[C@@H]3O.Cl (stereo not given in full)", 1),
]

Prompt: Report ED20 for C=C[C@@]1(C)CC(=O)[C@]2(O)C3(C)C(C(O)C(OC(=O)C(C)n4cnc5c4c(=O)n(C)c(=O)n5C)[C@@]2(C)O1)C(C)(C)CC[C@@H]3O (stereo not given in full) please.
Response: 5

Prompt: Report ED20 for C=C[C@@]1(C)CC(=O)[C@]2(O)C3(C)C(C(O)C(OC(=O)CN4CCCC(C)C4)[C@@]2(C)O1)C(C)(C)CC[C@@H]3O.Cl (stereo not given in full) please.
Response: 10

Prompt: Report ED20 for C=C[C@@]1(C)CC(=O)[C@]2(O)C3(C)C(C(O)C(OC(=O)CCCN4CCN(C)CC4)[C@@]2(C)O1)C(C)(C)CC[C@@H]3O.Cl (stereo not given in full) please.
Response: 0.8

Prompt: Report ED20 for C=C[C@@]1(C)CC(=O)[C@]2(O)C3(C)C(C(OC(=O)CN4CCSCC4)C(O)[C@@]2(C)O1)C(C)(C)CC[C@@H]3O.Cl (stereo not given in full) please.
Response: 5

----------
Test: Acute toxicity in mice when administered intraperitoneally
Format: organism-based
Settings: mouse, in vivo, ip
Attribute: LD50
Please respond with the number in mg/kg and leave the unit unwritten.

# compound, numericResult
data = [
    ("C=C[C@@]1(C)CC(=O)[C@]2(O)C3(C)C(C(OC(=O)CN4CCCCC4)C(O)[C@@]2(C)O1)C(C)(C)CC[C@@H]3O.Cl (some centres not stated)", 85),
    ("C=C[C@@]1(C)CC(=O)[C@]2(O)C3(C)C(C(OC(=O)CCCN4CCN(C)CC4)C(O)[C@@]2(C)O1)C(C)(C)CC[C@@H]3O.Cl (some centres not stated)", 65),
    ("C=C[C@@]1(C)CC(=O)[C@]2(O)C3(C)C(C(O)C(OC(=O)CN4CCOCC4)[C@@]2(C)O1)C(C)(C)CC[C@@H]3O.Cl (some centres not stated)", 25),
]

Prompt: Report LD50 for C=C[C@@]1(C)CC(=O)[C@]2(O)C3(C)C(C(O)C(OC(=O)C(C)N4CCOCC4)[C@@]2(C)O1)C(C)(C)CC[C@@H]3O.Cl (some centres not stated) please.
Response: 30

Prompt: Report LD50 for C=C[C@@]1(C)CC(=O)[C@]2(O)C3(C)C(C(OC(=O)CCN4CCCCC4)C(O)[C@@]2(C)O1)C(C)(C)CC[C@@H]3O.Cl (some centres not stated) please.
Response: 30

Prompt: Report LD50 for `C=C[C@@]1(C)CC(=O)[C@]2(O)[C@@]3(C)[C@@H](O)CCC(C)(C)[C@@H]3[C@H](O)[C@H](OC(C)=O)[C@@]2(C)O1` please.
Response: 92

Prompt: Report LD50 for C=C[C@@]1(C)CC(=O)[C@]2(O)C3(C)C(C(OC(=O)CN4CCOCC4)C(O)[C@@]2(C)O1)C(C)(C)CC[C@@H]3O.Cl (some centres not stated) please.
Response: 82.5

----------
Organism: Cavia porcellus
Assay: Positive inotropic activity in spontaneously beating guinea pig atria
Type: functional, organism-based
endpoint: EC50 (µg/mL)

# compound, numericResult
records = [
    ("C=C[C@@]1(C)CC(=O)[C@]2(O)C3(C)C(C(OC(=O)CN4CCN(C)CC4)C(O)[C@@]2(C)O1)C(C)(C)CC[C@@H]3O.Cl (stereo partly specified)", 30),
]

[a] C=C[C@@]1(C)CC(=O)[C@]2(O)C3(C)C(C(OC(=O)CN4CCC(O)(c5ccccc5)CC4)C(O)[C@@]2(C)O1)C(C)(C)CC[C@@H]3O (stereo partly specified)
[b] C=C[C@@]1(C)CC(=O)[C@]2(O)C3(C)C(C(O)C(OC(=O)CCN4CCCCC4)[C@@]2(C)O1)C(C)(C)CC[C@@H]3O.Cl (stereo partly specified)
Prompt: Given a and given b , which shows the smaller recorded EC50? Answer = label.
Response: b

----------
Test system: Canis familiaris
Test: Dose required to produce 50 % increase in left ventricular dP/dt max in anesthetized dogs when administered intravenously
Type: functional
Settings: Canis lupus familiaris, Heart left ventricle, iv
endpoint: ED50 (mg/kg)
Please respond with the number in mg/kg and leave the unit unwritten.

Example entries and their recorded answers appear below.
# compound, readoutUnit, ED50
data = [
    ("C=C[C@@]1(C)CC(=O)[C@]2(O)C3(C)C(C(OC(=O)CCCN4CCN(C)CC4)C(O)[C@@]2(C)O1)C(C)(C)CC[C@@H]3O.Cl (some centres not stated)", "mg/kg", 0.41),
    ("C=C[C@@]1(C)CC(=O)[C@]2(O)C3(C)C(C(OC(=O)CCN4CCCCC4)C(O)[C@@]2(C)O1)C(C)(C)CC[C@@H]3O.Cl (some centres not stated)", "mg/kg", 0.3),
    ("C=C[C@@]1(C)CC(=O)[C@]2(O)C3(C)C(C(OC(=O)CN4CCOCC4)C(O)[C@@]2(C)O1)C(C)(C)CC[C@@H]3O.Cl (some centres not stated)", "mg/kg", 0.11),
    ("C=C[C@@]1(C)CC(=O)[C@]2(O)C3(C)C(C(O)C(OC(=O)C(C)N4CCOCC4)[C@@]2(C)O1)C(C)(C)CC[C@@H]3O.Cl (some centres not stated)", "mg/kg", 0.04),
    ("C=C[C@@]1(C)CC(=O)[C@]2(O)C3(C)C(C(OC(=O)CN4CCCCC4)C(O)[C@@]2(C)O1)C(C)(C)CC[C@@H]3O.Cl (some centres not stated)", "mg/kg", 0.052),
    ("C=C[C@@]1(C)CC(=O)[C@]2(O)C3(C)C(C(O)C(OC(=O)CN4CCOCC4)[C@@]2(C)O1)C(C)(C)CC[C@@H]3O.Cl (some centres not stated)", "mg/kg", 0.035),
]

Consider the record given below.
Prompt: Report ED50 for `C=C[C@@]1(C)CC(=O)[C@]2(O)[C@@]3(C)[C@@H](O)CCC(C)(C)[C@@H]3[C@H](O)[C@H](OC(C)=O)[C@@]2(C)O1` please.
Response: 0.007

// provenance: ChEMBL document CHEMBL1123969
